# ASSAY_TARGET: PE-labeled human PD-L1-Ig binding to Jurkat cell line over-expressing human PD-1 (Jurkat-PD-1) (Homo sapiens)
# Construct: expressed in transfected cells; host or cells: Jurkat
# Sequence (Q15116 25-288): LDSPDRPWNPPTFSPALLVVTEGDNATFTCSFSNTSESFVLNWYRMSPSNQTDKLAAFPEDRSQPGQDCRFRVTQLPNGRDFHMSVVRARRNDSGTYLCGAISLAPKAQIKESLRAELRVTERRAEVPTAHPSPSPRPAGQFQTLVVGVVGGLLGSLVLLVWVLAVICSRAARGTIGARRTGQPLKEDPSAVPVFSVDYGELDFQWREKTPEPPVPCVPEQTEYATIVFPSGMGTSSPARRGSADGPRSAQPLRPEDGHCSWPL
# EXPERIMENT_DESCRIPTION: Jurkat-PD-1 Cell Binding High-Content Screening Assay (CBA): Method 1
# REPORTED_CONDITIONS: Jurkat-hPD-1 cells, PE-labeled PD-L1-Ig 20 nM final; read-out: Jurkat HPDL1 PD1 IC50 (uM) (Method 1)
Bridge positions count the residues as written; N and C are the ends. Square brackets hold non-standard residues; d marks the D form. Peptide text beside a SMILES is read from it. Bip = N[C@@H](Cc1ccc(-c2ccccc2)cc1)C(=O)O; Cit = NC(=O)NCCC[C@H](N)C(=O)O; NMeA = CN[C@@H](C)C(=O)O; Dab = NCC[C@H](N)C(=O)O
RECORDED_ENDPOINT: IC50
Write the numeric value and follow it with the unit.

The value of IC50 measured for the compound CC(C)C[C@@H]1NC(=O)[C@H](Cc2c[nH]c3ccccc23)NC(=O)[C@H](CC(=O)O)NC(=O)[C@H](Cc2ccc(O)cc2)NC(=O)[C@H](Cc2ccccc2)NC(=O)CSC[C@@H](C(=O)NCC(N)=O)NC(=O)[C@H](CO)NC(=O)[C@H](C(C)C)NC(=O)[C@H](CC(C)C)NC(=O)[C@H](CCN)NC(=O)[C@@H](CC(C)C)NC(=O)[C@H](C)N(C)C(=O)[C@H](CCCNC(N)=O)NC(=O)[C@H](Cc2ccc(-c3ccccc3)cc2)NC1=O [Compound 1512] ({CH2CO}-FYDWL[Bip][Cit][NMeA][dL][Dab]LVSCG-NH2; thioether N-14) turned out to be 0.02 µM
